This listing pairs compounds with measured Kb.
experimental.target: human EP2 receptors (Homo sapiens, UniProt P43116)
Construct: expressed in transfected cells
Sequence (P43116 whole entry): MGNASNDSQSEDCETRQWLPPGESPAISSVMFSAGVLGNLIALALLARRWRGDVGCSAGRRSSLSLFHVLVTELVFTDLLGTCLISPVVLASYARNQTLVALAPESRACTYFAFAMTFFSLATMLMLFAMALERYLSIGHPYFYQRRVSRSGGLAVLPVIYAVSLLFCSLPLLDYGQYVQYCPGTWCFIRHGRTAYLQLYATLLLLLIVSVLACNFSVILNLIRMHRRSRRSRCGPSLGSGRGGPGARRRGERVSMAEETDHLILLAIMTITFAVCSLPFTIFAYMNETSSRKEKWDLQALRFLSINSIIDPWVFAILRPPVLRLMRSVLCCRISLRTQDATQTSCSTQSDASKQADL
experimental.protocol: cell-based cAMP TR-FRET assay, rightward shift of PGE2 concentration response curve (Schild KB), EP2
measurement.setup: Table 1; Schild KB from single antagonist concentration 1 μM; average of 2-3 measurements in duplicate; read-out: EP2 KB
Method: KB value indicates the antagonist concentration required for a twofold rightward shift in the PGE2 dose-response curve. Thus, a lower KB value indicates a higher inhibitory potency. […] Intracellular cAMP was measured with a cell-based homogeneous time-resolved fluorescence resonance energy transfer (TR-FRET) method (Cisbio Bioassays). […] The FRET signal was expressed as: F665/F590×10^4.
Answer format: numeric, nM implied, no suffix.

Known results for compounds:
chem.smiles: Cc1cc2ccccc2n1CCNC(=O)c1ccc(N2CCOCC2)cc1
experimental.target: human EP2 receptors (Homo sapiens, UniProt P43116)
readout.type: Kb
endpoint.value: 9.6

chem.smiles: CCN(CC)c1ccc(C(=O)NCCn2c(C)cc3ccccc32)cc1C(F)(F)F
experimental.target: human EP2 receptors (Homo sapiens, UniProt P43116)
readout.type: Kb
endpoint.value: 310

chem.smiles: Cc1cc2cc(F)ccc2n1CCNC(=O)c1ccc(N2CCOCC2)cc1
experimental.target: human EP2 receptors (Homo sapiens, UniProt P43116)
readout.type: Kb
endpoint.value: 14.9

chem.smiles: O=C(NCCn1c(C(F)(F)F)cc2ccccc21)c1ccc(N2CCOCC2)cc1
experimental.target: human EP2 receptors (Homo sapiens, UniProt P43116)
readout.type: Kb
endpoint.value: 120

chem.smiles: Cc1cc2ccccc2n1CCNC(=O)c1ccc(CNC(=O)OC(C)(C)C)cc1
experimental.target: human EP2 receptors (Homo sapiens, UniProt P43116)
readout.type: Kb
endpoint.value: 84

Problem: Which value of Kb has been reported for `CCN(CC)c1ccc(C(=O)NCCn2c(C)nc3ccccc32)cc1` in the records?
Result: 190

Problem: Which value of Kb has been reported for `Cc1cc2ccccc2n1CCNC(=O)c1ccc(-n2nn[nH]c2=S)cc1` in the records?
Result: 32.2

Problem: Which value of Kb has been reported for `COc1ccc(C(=O)NCCn2c(C)cc3ccccc32)cc1F` in the records?
Result: 86.8

Problem: Which value of Kb has been reported for `Cc1cc2ccccc2n1CCNC(=O)c1ccc(N2CCC(C(=O)O)CC2)cc1` in the records?
Result: 89.7

Problem: Which value of Kb has been reported for `Cc1cc2ccccc2n1CCNC(=O)c1ccc2[nH]nnc2c1` in the records?
Result: 87.5

Problem: Which value of Kb has been reported for `Cc1[nH]c2ccccc2c1CCNC(=O)c1ccc(N2CCCCC2)cc1` in the records?
Result: 19.8

Problem: Which value of Kb has been reported for `Cc1[nH]c2ccccc2c1CCNC(=O)c1ccc(N2CCOCC2)c(F)c1` in the records?
Result: 66

Problem: Which value of Kb has been reported for `Cc1cc2ccccc2n1CCNC(=O)c1ccc(N2CCN(C)CC2)cc1` in the records?
Result: 64

Problem: Which value of Kb has been reported for `Cc1cc2ccccc2n1CCNC(=O)c1ccc(N2CCCN(C)CC2)cc1` in the records?
Result: 148

----------
System: C6-glioma cells
measurement.setup: rat
This listing pairs compounds with measured Therapeutic Index (CC50/EP2 KB).

Known results for compounds:
chem.smiles: Cc1cc2ccccc2n1CCNC(=O)c1ccc(N2CCN(C)CC2)c(F)c1
Therapeutic Index (CC50/EP2 KB): 6,660

chem.smiles: Cc1cc2ccccc2n1CCNC(=O)c1ccc(N2CCCCCC2)cc1
Therapeutic Index (CC50/EP2 KB): 14,470

chem.smiles: Cc1cc2ccccc2n1CCNC(=O)c1ccc(N2CCOCC2)c(F)c1
Therapeutic Index (CC50/EP2 KB): >19,450

chem.smiles: Cc1cc2ccccc2n1CCNC(=O)c1ccc2c(c1)n(C)c(=O)n2C
Therapeutic Index (CC50/EP2 KB): 7,370

chem.smiles: Cc1cc2ccccc2n1CCNC(=O)c1ccc(N2CCCCC2)cc1
Therapeutic Index (CC50/EP2 KB): 33,510

chem.smiles: Cc1cc2ccccc2n1CCNC(=O)c1ccc(N2CCC(O)CC2)cc1
Therapeutic Index (CC50/EP2 KB): 6,082

Problem: Which value of Therapeutic Index (CC50/EP2 KB) has been reported for `CCCN(CCC)c1ccc(C(=O)NCCn2c(C)cc3ccccc32)cc1` in the records?
Result: 28,130

Problem: Which value of Therapeutic Index (CC50/EP2 KB) has been reported for `Cc1cc2ccccc2n1CCNC(=O)c1ccc(N2CCCC2)cc1` in the records?
Result: 16,120

Problem: Which value of Therapeutic Index (CC50/EP2 KB) has been reported for `Cc1cc2ccccc2n1CCNC(=O)c1ccc(N2CCOCC2)cc1` in the records?
Result: 30,100

Problem: Which value of Therapeutic Index (CC50/EP2 KB) has been reported for `CCN(CC)c1ccc(C(=O)NCCn2c(C)cc3ccccc32)cc1` in the records?
Result: 118,520

Problem: Which value of Therapeutic Index (CC50/EP2 KB) has been reported for `CCN(CC)c1ccc(C(=O)NCCc2c(C)[nH]c3ccccc23)cc1` in the records?
Result: >72,460

----------
This listing pairs compounds with measured CC50.
Test system: C6-glioma cells
measurement.setup: rat
Answer format: numeric, µM implied, no suffix.

Known results for compounds:
chem.smiles: Cc1cc2ccccc2n1CCNC(=O)c1ccc(N2CCCCC2)cc1
CC50 / µM: 315

chem.smiles: Cc1[nH]c2ccccc2c1CCNC(=O)c1ccc(N2CCOCC2)cc1
CC50 / µM: 311

chem.smiles: Cc1cc2ccccc2n1CCNC(=O)c1ccc(N(C)C)cc1
CC50 / µM: 310

chem.smiles: Cc1cc2ccccc2n1CCNC(=O)c1ccc(N2CCC(O)CC2)cc1
CC50 / µM: 163

chem.smiles: Cc1cc2ccccc2n1CCNC(=O)c1ccc(N2CCOCC2)cc1
CC50 / µM: 289

Problem: Which value of CC50 has been reported for `CCCN(CCC)c1ccc(C(=O)NCCn2c(C)cc3ccccc32)cc1` in the records?
Result: 332

Problem: Which value of CC50 has been reported for `Cc1cc2ccccc2n1CCNC(=O)c1ccc(N2CCCC2)cc1` in the records?
Result: 337

----------
System: C6-glioma cells
measurement.setup: rat
readout.type: CC50 (µM)
Answer format: numeric, µM implied, no suffix.

chem.smiles: CCN(CC)c1ccc(C(=O)NCCn2c(C)cc3ccccc32)cc1
readout.type: CC50
endpoint.value: 320

chem.smiles: Cc1cc2ccccc2n1CCNC(=O)c1ccc(N2CCN(C)CC2)c(F)c1
readout.type: CC50
endpoint.value: 300

chem.smiles: Cc1cc2ccccc2n1CCNC(=O)c1ccc(N2CCCCCC2)cc1
readout.type: CC50
endpoint.value: 327

chem.smiles: Cc1cc2ccccc2n1CCNC(=O)c1ccc2c(c1)n(C)c(=O)n2C
readout.type: CC50
endpoint.value: 154

API: the following record is the query input.
Problem: Return CC50 measured with C6-glioma cells given this compound: `Cc1[nH]c2ccccc2c1CCNC(=O)c1ccc(N(C)C)cc1`
Result: 320

----------
experimental.target: human DP1 receptors (Homo sapiens, UniProt Q13258)
Construct: expressed in transfected cells
Sequence (Q13258 1-359): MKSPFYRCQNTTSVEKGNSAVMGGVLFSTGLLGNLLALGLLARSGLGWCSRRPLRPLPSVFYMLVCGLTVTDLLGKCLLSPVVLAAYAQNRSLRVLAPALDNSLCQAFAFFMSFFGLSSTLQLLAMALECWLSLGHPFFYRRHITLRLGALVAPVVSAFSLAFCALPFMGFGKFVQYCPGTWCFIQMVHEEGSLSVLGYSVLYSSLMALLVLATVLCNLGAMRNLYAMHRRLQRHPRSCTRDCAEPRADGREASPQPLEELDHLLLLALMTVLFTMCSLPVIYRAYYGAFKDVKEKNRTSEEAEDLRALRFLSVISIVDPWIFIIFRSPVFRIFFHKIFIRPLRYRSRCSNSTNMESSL
experimental.protocol: cell-based cAMP TR-FRET assay, DP1 (agonist BW245C)
measurement.setup: Table 6; read-out: DP1 KB
I would appreciate it if you labelled entries 1 (yes) when Kb is 6000 nM or higher, otherwise 0 (no).

Observe how each entry below is paired with its result.
chem.smiles: Cc1cc2ccccc2n1CCNC(=O)c1ccc(OCCO)cc1
experimental.target: human DP1 receptors (Homo sapiens, UniProt Q13258)
label.class: 0 (no)
--
chem.smiles: O=C(NCCn1c(C(F)(F)F)cc2ccccc21)c1ccc(N2CCC(C(=O)O)CC2)cc1
experimental.target: human DP1 receptors (Homo sapiens, UniProt Q13258)
label.class: 0 (no)
--
chem.smiles: Cc1cc2ccccc2n1CCNC(=O)c1ccc(N=[N+]=[N-])cc1
experimental.target: human DP1 receptors (Homo sapiens, UniProt Q13258)
label.class: 0 (no)
--
chem.smiles: Cc1cc2ccccc2n1CCNC(=O)c1ccc(OCCO)c(OCCO)c1
experimental.target: human DP1 receptors (Homo sapiens, UniProt Q13258)
label.class: 1 (yes)
--
chem.smiles: O=C(NCCn1c(C(F)(F)F)cc2ccccc21)c1ccc(-c2nnn[nH]2)cc1
experimental.target: human DP1 receptors (Homo sapiens, UniProt Q13258)
label.class: 0 (no)
--
chem.smiles: Cc1cc2ccccc2n1CCNC(=O)c1ccc(-c2cn(COCc3ccccc3)nn2)cc1
experimental.target: human DP1 receptors (Homo sapiens, UniProt Q13258)
label.class: 0 (no)
--
chem.smiles: Cc1cc2ccccc2n1CCNC(=O)c1cc(-c2ccc(F)cc2)n[nH]1
experimental.target: human DP1 receptors (Homo sapiens, UniProt Q13258)
label.class: 1 (yes)

Problem: Answer whether Kb of `COc1ccc(C(=O)NCCn2c(C)cc3ccccc32)cc1OC` is greater than or equal to 6000 nM.
Result: 0 (no)
